This listing pairs molecules with measured Ptosis.
test system: test animals; test: Behavior analysis (side-effect or toxicity scores); assay type: in vivo; settings: dose 50mg/Kg; behavior score, normal value 4

MOLECULE | Ptosis
NCCOc1ccc(CC(=O)NCCCc2ccc(Cl)c(Cl)c2)cc1N | 4
NCCOc1ccc(CC(=O)NCCCc2ccc(F)cc2)cc1N | 4
CCCCCCCC/C=C\CCCCCCCC(=O)NCc1ccc(OCCN)c(OC)c1 [NE-21610, reference compound] | 5
NCCOc1ccc(CC(=O)NCCCc2ccc(Cl)cc2)cc1N | 4

* * *

tested on: test animals; assay: Behavior analysis (side-effect or toxicity scores); type: in vivo; set-up: key: behavior score; higher number = greater side effects; settings: dose 50mg/Kg; behavior score, normal value 4

MOLECULE | Sedation
NCCOc1ccc(CC(=O)NCCCc2ccc(F)cc2)cc1N [Example 40] | 4
NCCOc1ccc(CC(=O)NCCCc2ccc(Cl)cc2)cc1N [Example 39] | 4
CCCCCCCC/C=C\CCCCCCCC(=O)NCc1ccc(OCCN)c(OC)c1 [NE-21610, reference compound] | 5
NCCOc1ccc(CC(=O)NCCCc2ccc(Cl)c(Cl)c2)cc1N [Example 41] | 5

* * *

experiment: acute toxicity test; details: mouse, in vivo, po, per os; 5 ICR male mice, 5 weeks old; observed for 14 days; read-out: LD50(male)
The entries below come with measured LD50 at 336 h values attached.

INPUT_SMILES | READING_UNIT | REL | LD50 at 336 h
COc1cc(CC(=O)NCCCc2ccc(C)c(C)c2)ccc1OCCN | mg/kg | = | 224
Cc1cc(C)cc(CCCNC(=O)Cc2ccc(OCCN)c(F)c2)c1 | mg/kg | > | 2000
COc1cc(CC(=O)NCCCc2cccc(C)c2)ccc1OCCN | mg/kg | = | 125
Cc1ccc(CCCNC(=O)Cc2ccc(OCCN)c(F)c2)cc1 | mg/kg | = | 500

* * *

tested on: mice; test: Tail-flick test (radiant heat); assay type: in vivo; conditions: p. o., dose 100 mg/Kg

COMPOUND | EXPERIMENTAL_TARGET | Inhibition(%)
CN1C(C(=O)Nc2ccccn2)=C(O)c2ccccc2S1(=O)=O [Piroxicam, reference compound] | mice | 0
NCCOc1ccc(CC(=O)NCCCc2ccc(F)cc2)cc1N | mice | 50
CC(=O)Oc1ccccc1C(=O)O | mice | 0
NCCOc1ccc(CC(=O)NCCCc2cccc(C(F)(F)F)c2)cc1N | mice | 40
